Measured IFNg Secretion EC50, listed per entry.
Molecular target: T1, human GITR (Glucocorticoid-induced TNFR-related gene, TNFRSF18) (human, UniProt Q9Y5U5 26-241)
T1 sequence: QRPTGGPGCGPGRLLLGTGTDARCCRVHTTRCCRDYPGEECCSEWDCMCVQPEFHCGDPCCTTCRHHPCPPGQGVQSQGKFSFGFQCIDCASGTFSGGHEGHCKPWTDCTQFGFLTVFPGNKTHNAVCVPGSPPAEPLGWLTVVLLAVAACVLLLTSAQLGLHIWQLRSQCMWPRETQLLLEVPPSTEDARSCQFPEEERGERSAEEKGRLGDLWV
Assay: cell-based or functional assay
REPORTED ENDPOINT: IFNg Secretion EC50 (ng/mL)

- 35B10 (antibody, human IgG1, kappa, V domains shown, Fully human parental antibody; also called Ab5; SS-12416) VH: QVQLVESGGGVVQPGRSLRLSCAASGFTFSSYGMHWVRQAPGKGLEWVAVIWYAGSNKYYADSVKGRFTISRDNSKNTLYLQMNSLRAEDTAVYYCARGGELSFYYYYGMDVWGQGTTVTVSS VL: DIQMTQSPSSLSASVGDRVTITCRASQGIRNDLGWYQQKPGKAPKRLIYAASTLQSGVPSRFSGSGSGTEFTLTISSLQPEDFATYYCLQHNNYPWTFGQGTKVEIKR: 0.5
- 1D7 (antibody, human IgG1, kappa, V domains shown, Fully human parental antibody; also called Ab1; SS-10942) VH: QVQLVESGGGVVQPGRSLRLSCAASGFTFSSYGMHWVRQAPGKGLEWVTVIWYEGSNKYYADSVKGRFTISRDNSKNTLYLQMNSLRAEDTAVYYCARGGQLGKYYYYGMDVWGQGTTVTVSS VL: DIQMTQSPSSLSASVGDRVTITCRASQGIRNDLGWYQQKPGKAPKRLIYDASSLQSGVPSRFSGSGSGTEFTLTISSLQPEDFATYYCLQHNNYPWTFGQGTKVEIKR: 0.8
- 41G5 (antibody, human IgG1, kappa, V domains shown, Fully human parental antibody; also called Ab7; SS-12428) VH: QVQLVESGGGVVQPGRSLRLSCAASGFTFSSYGMHWVRQAPGKGLEWVAVIWYPGSNKYYADSVKGRFTISRDNSKNTLYLQMNSLRAEDTAVYYCARGGELGRYYYYGMDVWGQGTTVTVSS VL: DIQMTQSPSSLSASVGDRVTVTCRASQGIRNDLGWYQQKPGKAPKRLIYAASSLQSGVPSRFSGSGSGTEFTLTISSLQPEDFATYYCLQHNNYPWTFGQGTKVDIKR: 0.8
- 34G4 (antibody, human IgG1, kappa, V domains shown, Fully human parental antibody; also called Ab4; SS-12415) VH: QVQLVESGGGVVQPGRSLRLSCAASGFTFSSYGMHWVRQAPGKGLEWVAVIWYEGSNKYYADSVKGRFTISRDNSKNTLYLQMNSLRAEDTAVYYCARGGQLGYYYYYGMDVWGQGTTVTVSS VL: DIQMTQSPSSLSASVGDRVTITCRASQGIRNDLGWYQQKPGKAPKRLIYDASSLQSGVPSRFSGSGSGTDFTLTISSLQPEDFATYYCLQLNSYPWTFGQGTKVEIKR: 0.2
- 46E11 (antibody, human IgG1, kappa, V domains shown, Fully human parental antibody; also called Ab11; SS-12421) VH: QVQLVESGGGVVQPGRSLRLSCAASGFTFSSYGMHWVRQAPGKGLEWVAVIWYAGSNKYYADSVKGRFTISRDNSKNTLYLQMNSLRAEDTAVYYCARGDILTGYSLYYGMDVWGQGTTVTVSS VL: DIQMTQSPSSLSASVGDRVTITCRASQGIRNDLGWYQQKPGKAPKRLIYAASSLQSGVPSRFSGSGSGAEFTLTISSLQPEDFATYYCLQHNSYPWTFGQGTKVEIKR: 0.9
